Tested on: HCT116 MTAP null cells
Test: HCT116 proliferation assay, MTAP null cells (CellTiter-Glo, 6 days)
Assay type: cell-based
Details: HCT116-MTAP null, 144 h, read-out: Protif_ HCT116-MTAP null IC50
Threshold 300 nM: IC50 strictly smaller gives satisfied, otherwise not satisfied.

{"columns": ["compound", "label_class"],
 "data": [
  ["COc1ccnc2c1CCCC2N(Cc1ccc(C(F)(F)F)cn1)C(=O)c1ccc2nc(N)c(C)cc2c1 (centres unmarked)", "satisfied"],
  ["COc1ccc(CN(C(=O)c2ccc3nc(N)c(C)cc3c2)[C@@H]2CCC[C@H]2O)nn1", "satisfied"],
  ["Cc1cc2cc(C(=O)N(Cc3ccc(C(F)(F)F)cn3)[C@H](C)c3ncccn3)cnc2nc1N (single isomer, unassigned)", "satisfied"],
  ["Cc1cc2cc(C(=O)N(Cc3ccc4[nH]c(=O)[nH]c4c3)Cc3ccnc4[nH]ccc34)ccc2nc1N", "not satisfied"],
  ["COc1ccc(CN(C(=O)c2cnc3nc(N)c(Br)cc3c2)[C@H](C)c2ncccc2F)nn1", "satisfied"]
]}

Strictly below 300 nM: is that where IC50 of Cc1cc2cc(C(=O)N(Cc3ccc(N4CC5(COC5)C4)cn3)[C@H](C)c3ncccn3)ccc2nc1N sits?
not satisfied

Strictly below 300 nM: is that where IC50 of C[C@H](c1ncccn1)N(Cc1cc(Cl)c(C#N)cn1)C(=O)c1ccc2nc(N)c(Br)cc2c1 sits?
satisfied

Strictly below 300 nM: is that where IC50 of C[C@H](c1ncccc1F)N(Cc1ccc(C#N)cn1)C(=O)c1ccc2nc(N)c(Br)cc2c1 sits?
satisfied

Strictly below 300 nM: is that where IC50 of Cc1cc2cc(C(=O)N(Cc3ccc(C(F)(F)F)cn3)Cc3ccccc3-n3ccnc3)ccc2nc1N sits?
satisfied

Strictly below 300 nM: is that where IC50 of C[C@H](c1ncccn1)N(Cc1ccc(C(F)(F)F)nn1)C(=O)c1cnc2nc(N)c(Br)cc2c1 (single isomer, unassigned) sits?
not satisfied

Strictly below 300 nM: is that where IC50 of Cc1cc2cc(C(=O)N(Cc3ccc(C(F)(F)F)cn3)Cc3ncoc3C)ccc2nc1N sits?
satisfied

---

Molecular target: PRMT5/MEP50 (Homo sapiens)
Sequence (O14744 whole entry): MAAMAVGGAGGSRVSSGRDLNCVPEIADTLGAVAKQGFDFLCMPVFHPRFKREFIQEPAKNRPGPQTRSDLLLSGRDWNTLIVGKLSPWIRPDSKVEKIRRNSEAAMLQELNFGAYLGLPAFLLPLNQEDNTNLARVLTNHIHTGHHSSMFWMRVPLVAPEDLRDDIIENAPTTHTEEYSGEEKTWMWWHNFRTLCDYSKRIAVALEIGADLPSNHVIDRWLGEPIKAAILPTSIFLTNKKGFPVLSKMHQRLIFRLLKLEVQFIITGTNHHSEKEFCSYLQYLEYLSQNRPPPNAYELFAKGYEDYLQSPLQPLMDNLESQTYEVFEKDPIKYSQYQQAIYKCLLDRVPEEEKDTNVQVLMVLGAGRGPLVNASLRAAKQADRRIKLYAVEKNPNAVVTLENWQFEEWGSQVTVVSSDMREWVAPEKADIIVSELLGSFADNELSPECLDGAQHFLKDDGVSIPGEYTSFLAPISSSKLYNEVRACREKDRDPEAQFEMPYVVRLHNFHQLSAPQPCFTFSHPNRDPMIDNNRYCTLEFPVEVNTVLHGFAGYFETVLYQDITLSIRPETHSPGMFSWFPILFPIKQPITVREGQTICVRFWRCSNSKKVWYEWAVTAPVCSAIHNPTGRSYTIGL
Sequence (Q9BQA1 whole entry partner): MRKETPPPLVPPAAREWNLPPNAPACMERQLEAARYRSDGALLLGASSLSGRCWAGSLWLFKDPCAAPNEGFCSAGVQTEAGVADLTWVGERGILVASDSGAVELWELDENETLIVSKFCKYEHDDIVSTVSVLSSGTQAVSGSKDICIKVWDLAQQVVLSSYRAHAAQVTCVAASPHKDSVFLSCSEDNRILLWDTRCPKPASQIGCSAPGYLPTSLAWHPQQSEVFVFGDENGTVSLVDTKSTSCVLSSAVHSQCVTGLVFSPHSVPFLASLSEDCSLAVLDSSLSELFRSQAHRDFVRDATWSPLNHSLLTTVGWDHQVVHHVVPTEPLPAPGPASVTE
Experiment: MTase-Glo methyl transferase assay, Method A (Histone H4 peptide, 1 µM MTA, 24 h pre-incubation)
Format: biochemical
Set-up: made in house
Conditions: read-out: PRMT5 MTase Glo Ki (nM, Meth. A)
Please provide measured Ki for the entries that follow.
Answers are plain numbers, in nM.

Take a look at these entries with their results.
{"columns": ["compound", "experimental_system", "reported_measurement"],
 "data": [
  ["[2H]C([2H])([2H])c1cc2cc(C(=O)N(Cc3ccc(C#N)cn3)[C@H](C)c3ncccn3)ccc2nc1N [Example 441]", "PRMT5/MEP50 (Homo sapiens)", 0.06],
  ["Cc1cc2cc(C(=O)N(Cc3ccc(N4CC5(COC5)C4)cn3)[C@H](C)c3ncccn3)ccc2nc1N [Example 556]", "PRMT5/MEP50 (Homo sapiens)", 4.1],
  ["Cc1cc2cc(C(=O)N(Cc3ccc(C(F)(F)F)cn3)[C@@H]3CCCc4nccnc43)ccc2nc1N (single isomer, unassigned) [Example 521]", "PRMT5/MEP50 (Homo sapiens)", 0.01],
  ["C[C@H](c1ncccn1)N(Cc1ccc(Br)nn1)C(=O)c1ccc2nc(N)c(Cl)cc2c1 [Example 348]", "PRMT5/MEP50 (Homo sapiens)", 0.73],
  ["Cc1cc2cc(C(=O)N(Cc3ccc(C(F)(F)F)cn3)[C@H](C)c3ncccn3)cnc2nc1N (single isomer, unassigned) [Example 486]", "PRMT5/MEP50 (Homo sapiens)", 0.42],
  ["Cc1cc2cc(C(=O)N(Cc3ccc(Br)nn3)[C@H](C)c3ncccn3)c(F)cc2nc1N [Example 349]", "PRMT5/MEP50 (Homo sapiens)", 0.02],
  ["Cc1cc2cc(C(=O)N(Cc3cncc(Cl)c3)Cc3ccc(C(F)(F)F)cn3)ccc2nc1N [Example 439]", "PRMT5/MEP50 (Homo sapiens)", 1.19],
  ["COc1ccc(CN(C(=O)c2ccc3nc(N)c(Cl)cc3c2)[C@H](C)c2ncccn2)nn1 [Example 413]", "PRMT5/MEP50 (Homo sapiens)", 0.65]
]}

Go through the list and state Ki for each entry.
1. Cc1cc2cc(C(=O)N(Cc3ccc(OC4CC4)cn3)[C@H](C)c3ncccn3)ccc2nc1N [Example 376]
2. Cc1cc2cc(C(=O)N(Cc3ccc(C4=CCOCC4)cn3)[C@H](C)c3ncccn3)ccc2nc1N [Example 557]
3. C[C@H](c1ncccn1)N(Cc1ccc(C#N)cn1)C(=O)c1ccc2nc(N)c(Cl)cc2c1 [Example 408]
4. Cc1cc2cc(C(=O)N(Cc3ccc(C(=O)N(C)C)cn3)[C@H](C)c3ncccc3F)ccc2nc1N [Example 561]
5. CC[C@H](c1ncccn1)N(Cc1ccc(C#N)cn1)C(=O)c1ccc2nc(N)c(C)cc2c1 (single isomer, unassigned) [Example 494]
6. Cc1cc2cc(C(=O)N(Cc3ccc(C(F)(F)F)cn3)[C@H](C)c3ncc(F)cn3)cnc2nc1N (single isomer, unassigned) [Example 481]

1: 0.02; 2: 0.18; 3: 0.13; 4: 0.3; 5: 0.66; 6: 0.18

Provenance of the data: patent US20230159510A1
